target: Jak2 (UniProt O60674); test: phosphorylation enrichment, bacterial display (enrichment ratio); higher = better substrate or ligand; peptides without Tyr show the background;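 also: 11-residue human phosphosite peptides and single-mutation variants displayed on the E. coli surface, counted by deep sequencing, each peptide's frequency after selection divided by its frequency in the unselected input library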;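 also: frequency after pTyr selection over input frequency; kinase dosed for 20-30% of maximal phosphorylation in three min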
Sequence (O60674 whole entry, looked up): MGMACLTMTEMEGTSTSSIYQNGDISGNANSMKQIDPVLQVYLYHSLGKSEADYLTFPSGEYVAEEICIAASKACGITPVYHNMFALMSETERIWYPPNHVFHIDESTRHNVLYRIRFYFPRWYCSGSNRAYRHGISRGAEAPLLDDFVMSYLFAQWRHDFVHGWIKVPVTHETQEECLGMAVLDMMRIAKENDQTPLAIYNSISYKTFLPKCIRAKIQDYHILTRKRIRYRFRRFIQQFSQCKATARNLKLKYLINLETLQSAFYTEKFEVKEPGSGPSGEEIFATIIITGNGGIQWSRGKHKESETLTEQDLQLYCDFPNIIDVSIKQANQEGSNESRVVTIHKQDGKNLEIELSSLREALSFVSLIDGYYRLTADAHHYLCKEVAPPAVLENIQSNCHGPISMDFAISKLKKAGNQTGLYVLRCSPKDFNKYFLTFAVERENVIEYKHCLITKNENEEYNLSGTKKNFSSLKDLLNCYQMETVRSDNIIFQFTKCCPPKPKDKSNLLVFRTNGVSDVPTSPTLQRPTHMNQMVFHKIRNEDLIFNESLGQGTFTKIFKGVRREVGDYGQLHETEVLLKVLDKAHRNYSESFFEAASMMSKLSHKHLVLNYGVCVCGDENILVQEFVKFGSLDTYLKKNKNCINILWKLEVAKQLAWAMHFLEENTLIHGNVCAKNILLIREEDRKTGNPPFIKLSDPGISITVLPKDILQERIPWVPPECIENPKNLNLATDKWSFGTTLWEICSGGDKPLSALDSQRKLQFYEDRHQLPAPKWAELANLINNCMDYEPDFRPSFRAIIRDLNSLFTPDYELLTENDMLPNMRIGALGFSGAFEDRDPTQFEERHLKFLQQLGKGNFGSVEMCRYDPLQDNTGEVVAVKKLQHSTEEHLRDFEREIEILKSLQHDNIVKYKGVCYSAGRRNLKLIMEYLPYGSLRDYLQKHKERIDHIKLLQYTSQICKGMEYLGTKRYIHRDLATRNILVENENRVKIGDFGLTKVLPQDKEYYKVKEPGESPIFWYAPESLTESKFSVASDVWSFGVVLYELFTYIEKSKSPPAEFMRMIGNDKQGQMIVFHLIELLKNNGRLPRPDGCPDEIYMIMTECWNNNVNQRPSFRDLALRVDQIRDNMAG
Each entry falls into one class according to its phosphorylation enrichment; the ranges are lowest: < 0.7; middle: ≥ 0.7 and < 1; highest: ≥ 1

Incoming: Kindly state the category for this sequence: KFVKMCDNHQL [MYO9A_Y203_Y203C_YF]
Outgoing: lowest

Incoming: Kindly state the category for this sequence: GCKKRYDKDKP [THAP1_Y14_N12K]
Outgoing: lowest

Incoming: Kindly state the category for this sequence: PSDSGYSFETI [MAP1B_Y1921_YF]
Outgoing: highest

Incoming: Kindly state the category for this sequence: DSDTDYGSGYP [RNASEH2A_Y206_L202S]
Outgoing: highest

Incoming: Kindly state the category for this sequence: HNLDFYKQTTN [FGFR3_Y648_K650Q_YF]
Outgoing: middle

Incoming: Kindly state the category for this sequence: NTTIHYNYMCN [TP53_Y234_C229N]
Outgoing: middle

Incoming: Kindly state the category for this sequence: FHKALYTVRTY [PDE6C_Y266_S270T]
Outgoing: highest

Incoming: Kindly state the category for this sequence: WHHTFYNEPRV [ACTA1_Y93_L96P]
Outgoing: middle

Incoming: Kindly state the category for this sequence: FTNRSYDLDYD [MYC_Y12_N11S]
Outgoing: middle

Incoming: Kindly state the category for this sequence: VMIYAYLLHRG [PTEN_Y138_C136Y]
Outgoing: middle

Incoming: Kindly state the category for this sequence: KPIETYFSKNF [PLP1_Y50_L46P_YF]
Outgoing: lowest

Incoming: Kindly state the category for this sequence: AALKLYHVSDS [VIL1_Y256]
Outgoing: lowest

Incoming: Kindly state the category for this sequence: LAIEWYVVVCK [RHO_Y136_R135W]
Outgoing: highest

Incoming: Kindly state the category for this sequence: LHVKMYNFLRS [ADGRG7_Y760_R756H]
Outgoing: highest

Incoming: Kindly state the category for this sequence: WNGDKYAATTT [TRIM39_Y439]
Outgoing: middle

Incoming: Kindly state the category for this sequence: KVALLYKPFFF [POLE_Y100_P99L_YF]
Outgoing: highest

Incoming: Kindly state the category for this sequence: DSGKLYALDGL [INO80_Y1104_V1108G]
Outgoing: middle

Incoming: Kindly state the category for this sequence: KTSGNYLPVTG [WDR19_Y28_A30P]
Outgoing: lowest

Incoming: Kindly state the category for this sequence: ALCHYYKLNII [ETV6_Y402_R399C]
Outgoing: highest

Incoming: Kindly state the category for this sequence: FSSLGYPLPEG [ZSWIM4_Y87_P89L_YF]
Outgoing: lowest

Incoming: Kindly state the category for this sequence: YETVKYINNER [ABCB7_Y345_F346I]
Outgoing: middle

Incoming: Kindly state the category for this sequence: IENPQYFSDAC [NTRK1_Y496]
Outgoing: highest

Incoming: Kindly state the category for this sequence: RAVLLYEFVGK [NATD1_Y45_YF]
Outgoing: highest

Incoming: Kindly state the category for this sequence: SHMVNYQPFRK [TEX37_Y25_D24N_YF]
Outgoing: lowest

Incoming: Kindly state the category for this sequence: TLLPDYEDEEE [ZNF830_Y159_S154T]
Outgoing: highest

Incoming: Kindly state the category for this sequence: KIIATYRLCSE [DNAH3_Y1586_V1583I]
Outgoing: middle

Incoming: Kindly state the category for this sequence: LRVGFYESDVM [A2M_Y708]
Outgoing: highest

Incoming: Kindly state the category for this sequence: YADPYYDYEIE [ZC3H18_Y372]
Outgoing: highest

Incoming: Kindly state the category for this sequence: HLATEYVFSDF [PANX1_Y10_Q5H]
Outgoing: highest

Incoming: Kindly state the category for this sequence: ERQIRYLNHQL [CEP152_Y268]
Outgoing: lowest

Incoming: Kindly state the category for this sequence: HKETGYVVERP [BCLAF1_Y466_L461H]
Outgoing: highest

Incoming: Kindly state the category for this sequence: RSSKTYLKTRS [LPL_Y329_M328T]
Outgoing: lowest

Incoming: Kindly state the category for this sequence: TEALFYTDDTA [ADPRS_Y75_YF]
Outgoing: highest

Incoming: Kindly state the category for this sequence: LQTFHYHGHSM [PDHA1_Y289_R288H_YF]
Outgoing: lowest

Incoming: Kindly state the category for this sequence: KLNNEYLELNF [MME_Y497_YF]
Outgoing: highest

Incoming: Kindly state the category for this sequence: HQNGTYGLHQD [SGSH_Y89_M88T]
Outgoing: lowest

Incoming: Kindly state the category for this sequence: YAANYYKLLGN [ROR2_Y646_D644N]
Outgoing: middle

Incoming: Kindly state the category for this sequence: AEKPKYQISNI [TJP1_Y1602_N1605S]
Outgoing: lowest

Incoming: Kindly state the category for this sequence: GSQERYFELVE [TSC2_Y407]
Outgoing: highest

Incoming: Kindly state the category for this sequence: RTLIRYAKLGN [BEST1_Y131_N133K]
Outgoing: highest

Incoming: Kindly state the category for this sequence: KDIENHIQDGK [RAD50_Y964_Y964H]
Outgoing: lowest

Incoming: Kindly state the category for this sequence: TDKLFYIYTPG [SLC27A4_Y243_S247P]
Outgoing: highest

Incoming: Kindly state the category for this sequence: HLSPEYKQNEI [GJB1_Y243_R238H]
Outgoing: middle

Incoming: Kindly state the category for this sequence: SILAVYSKDNF [PANK2_Y400_YF]
Outgoing: middle

Incoming: Kindly state the category for this sequence: KNKLNYTLPQD [NRAP_Y523]
Outgoing: lowest

Incoming: Kindly state the category for this sequence: SGGSSYGSGGG [KRT1_Y532]
Outgoing: lowest

Incoming: Kindly state the category for this sequence: VHFARYLAMNK [HARS1_Y138_P134H]
Outgoing: lowest

Incoming: Kindly state the category for this sequence: SQSPHYFRSGQ [GPATCH8_Y1038_R1043Q]
Outgoing: lowest

Incoming: Kindly state the category for this sequence: KASRKYYAMKI [AKT3_Y173_G171R]
Outgoing: lowest

Incoming: Kindly state the category for this sequence: NGSKGYAFVHF [PABPC5_Y147_YF]
Outgoing: middle
